Assay: soluble on expression in E. coli; label from the status in PepcDB or PDB records
Observed Property: soluble on expression in E. coli

Known results for sequences:
MLFDHLRDEVMRLDAGITQEVLKLYIAFKAETNFVDVVPQKSRLRLSLNMQFHELVDPKGIAKDVTNVGRWGNGDVEIGFSDLAQLPYIMGLIRQAFEKQMESALV : not soluble
MGHHHHHHSHHPFVRSAKGVSILRDLINEAMDVKLKRQESQQREVDQDDEENSEEDEMDSGTMVRAVGDEMGTVRVASTMTDGANTMIEHDDTLPSQLGTMVINAEDEEEEGTMKRRDETMQPAKPSFLEYFEQKEKENQINSFGKSVPGPLKNSSDWKIPQDGDYEFLKSWTVEDLQKRLLALDPMMEQEIEEIRQKYQSKRQPILDAIEAKKRRQQNF : soluble
MIKQVIQQLRVPDAGIENLQERRYWLQCERAYTYQPIYQTDGRLMAVELLTVVTHPDNPSRRIAPDRYFAELAVRHRIDVVKEQLHQLEQKADFFTRHHLLASVNVDGPTLIAMRRQPDILAAMERLPWLRFELVEHIRLPKDSSFASMCEFGPLWLDDFGTGMANFSALSEVRYDYIKVARELFVMLRQSPEGRNLFTLLLQLMNRYCRGVIVEGVETLEEWRDVQRSPAFAAQGYFLSRPVPLISLEEVILTL : not soluble
SMANHLVKPDNRNCKRPRELESPVPDSPQLSSLGKSDSSFSEISGLFYKDEALEKDLNDVSKEINLMLSTYAKLLSERAAVDASYIDEIDELFKEANAIENFLIQKREFLRQRFTVIANTLHR : soluble
MAAQQRDCGGAAQLAGPAAEADPLGRFTCPVCLEVYEKPVQVPCGHVFCSACLQECLKPKKPVCGVCRSALAPGVRAVELERQIESTETSCHGCRKNFFLSKIRSHVATCSKYQNYIMEGVKATIKDASLQPRNVPNRYTFPCPYCPEKNFDQEGLVEHCKLFHSTDTKSVVCPICASMPWGDPNYRSANFREHIQRRHRFSYDTFVDYDVDEEDMMNQVLQRSIIDQ : soluble

Could you share which soluble on expression in E. coli value was measured for "MSATKSEMPADVASVTDSSAASPAFPLIGDFLEEFLKCQVCCTNYNETTKLARGLHCGHTFCTECIKTMQKYGNSAYLECPSCRAETKCDIAAVSTNFAIMELIRKCGFLGPEKPEEPPMKQAAQPQLEQTIDELIDEGYRLLIADVKADLMAKFEQLRDVSKTSTIEATKADLEVLCDSVKEAVYEADLEYSYDEEESDEDEEENEDEEDVEEEEEKPCAEKKSPAQPERSSSLVRGFQIGLSRLFRNRRIHTEHLQVDHGAIATKLETRAACTEKSDNVKK" ? not soluble

Quick one: "MGSDKIHHHHHHMLGLIKKKANTLLGIDISSTSVKLLELSRSGGRYKVEAYAVEPLPPNAVVEKNIVELEGVGQALSRVLVKAKTNLKSAVVAVAGSAVITKTIEMEAGLSEDELENQLKIEADQYIPYPLEEVAIDFEVQGLSARNPERVDVLLAACRKENVEVREAALALAGLTAKVVDVEAYALERSYALLSSQLGADTDQLTVAVVDIGATMTTLSVLHNGRTIYTREQLFGGRQLTEEIQRRYGLSVEEAGLAKKQGGLPDDYDSEVLRPFKDAVVQQVSRSLQFFFAAGQFNDVDYIVLAGGTASIQDLDRLIQQKIGTPTLVANPFADMALNGKVNAGALASDAPALMIACGLALRSFD" not soluble

Quick one: "MAHHHHHHMILDLFDLCATPYAKRRSHLHSFMSELEDRLFRAEMALTQRRRSAVSPKEKRALGAVRPINVVVQEVLRETPILCFDEFQTFDVAHAALLAAFFSEAFREGLFFITTSNRPPEDLCRVSASFNAFLPVLRQHCHVVHCADIRDYRVKEAVERHHQLIFLHPNTKTNVERCCGVSSMLSGLVAESLHGSRRTHCGTTAAAS" soluble

Quick one: "MKNKLFASALCAAALFTTNAMAKDQELYFYNWSEYIPSEVLEDFTKETGIKVIYSTYESNESMYAKLKTQGAGYDLVVPSTYFVSKMRKEGMLQEIDHSKLSHFKDLDPNYLNKPFDPGNKFSIPYIWGATGIGINTDMLDKKSLKNWGDLWDAKWAGQLMLMDDAREVFHIALSKLGYSPNTTNPKEIKAAYRELKKLMPNVLVFNSDFPANPYLAGEVSLGMLWNGSAYMARQEGAPIQIIWPEKGTIFWMDSISIPAGAKNIEAAHKMIDFLLRPENAAKIALEIGYPTPVKTAHDLLPKEFANDPSIYPPQSVIDNGEWQDEVGEASVLYDEYFQKLKVND" soluble

Quick one: "VPGVWSPPCPTTPRVGVVAALVAATLTGCGSGDSTVAKTPEATPSLSTAHPAPPSSEPSPPSATAAPPSNHSAAPVDPCAVNLASPTIAKVVSELPRDPRSEQPWNPEPLAGNYNECAQLSAVVIKANTNAGNPTTRAVMFHLGKYIPQGVPDTYGFTGIDTSQCTGDTVALTYASGIGLNNVVKFRWNGGGVELIGNTTGG" soluble

Quick one: "MGSDKIHHHHHHALPDPVKPKAPKAVNPFHLGMAGYTFVNFDLDTTLKTLERLDIHYLCIKDFHLPLNSTDEQIRAFHDKCAAHKVTGYAVGPIYMKSEEEIDRAFDYAKRVGVKLIVGVPNYELLPYVDKKVKEYDFHYAIHLHGPDIKTYPDATDVWVHTKDLDPRIGMCLDVGHDLRNGCDPVADLKKYHTRVFDMHIKDVTDSSKAGVGIEIGRGKIDFPALIRMMREVNYTGMCSLEYEKDMKDPFLGIAESIGYFKAVSDLT" not soluble

Quick one: "WSYEHLHLTNRIKLLYAPTFRDNELGMAKLHLDIAEMKQALGNEYQLILKLHPSISNDLEKLDDDFVIYVDKETPIETLLPVVDILITDYSSIPFEFALLQKPMIFFTYDLTEYNNARGLSDGFLETIPGPHVFTTTELIEVIQNNTFDLEKVRLFAEKWNKYSDGFSSERFVSFLKE" not soluble
